Cited source for all entries: patent US20220403048A1

# System Name: cynomolgus ARG2
# Sequence (as listed by the source): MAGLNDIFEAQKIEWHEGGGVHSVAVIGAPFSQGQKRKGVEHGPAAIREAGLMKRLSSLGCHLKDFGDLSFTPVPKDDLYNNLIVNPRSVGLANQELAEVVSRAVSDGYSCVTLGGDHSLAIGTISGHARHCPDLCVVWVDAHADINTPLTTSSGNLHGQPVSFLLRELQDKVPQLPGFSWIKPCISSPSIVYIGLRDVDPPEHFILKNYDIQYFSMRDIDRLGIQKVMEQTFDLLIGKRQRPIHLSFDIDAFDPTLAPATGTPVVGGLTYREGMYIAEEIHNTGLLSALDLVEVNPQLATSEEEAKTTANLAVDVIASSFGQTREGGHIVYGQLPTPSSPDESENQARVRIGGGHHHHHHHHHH
# Procedure Summary: Bio-Layer Interferometry (OctetRED) binding kinetics, cynomolgus ARG2
# Experimental Context: second-generation Fab; cyno ARG2 ligand; same extended assay
# Source text: The OctetRED (Pall ForteBio) instrument was used to assess the kinetic parameters of the interactions between C0020187 and recombinantly produced human ARG2, cynomolgus ARG2 and human ARG1. […] Any changes in binding at the biosensor tip result in a shift in interference pattern, which can be measured in real time. […] Typically, a defined concentration of the analyte species is brought into contact with the coupled ligand and any binding is detected as an increased in signal (association phase). […]
Reported Property: kd (s⁻¹)
Only the number, expressed in s⁻¹, is required.

Some molecules with recorded kd:
{"columns": ["Molecule", "Obs Value"],
 "data": [
  ["C0021181: anti-ARG2 antibody, VH SEQ ID NO: 342, VL SEQ ID NO: 347 (antibody, listed as Homo sapiens, V domains shown, C0021181) VH: EVQLLESGGGLVRPGGSLRLSCAASEFTFRYDYHVWVRQAPGKGLEWVSAISGSGGSTYYADSVKSRFTISRDNSKNTLYLQMNSLRAEDTAVYYCARLRADLGLYMDLWGRGTLVTVSS VL: QSVLTQPPSVSAAPGQKVAVSCSGSSSNIGSHYVSWYQQLPGTAPKLLIYDNSERTSGIPDRFSGSKSGTSATLGITGLQTGDEADYYCGTWDELTSNLVFGGGTRLTVL", "4.43e-05"],
  ["C0021177: anti-ARG2 antibody, VH SEQ ID NO: 322, VL SEQ ID NO: 327 (antibody, listed as Homo sapiens, V domains shown, C0021177) VH: EVQLLESGGGLVQPGGSLRLSCAASGFTFRYEVAAWVRQAPGKGLEWVSAISGPAPKGYYADSVKGRFTISRDNSKNTLYLQMNSLRAEDTAVYYCARLRADLGLYMDLWGRGTLVTVSS VL: QSELTQPPTASAAPGQKVTISCSGSSSNIGNHYVSWYQQLPGTAPKLLIYDTTVLSSGIPDRFSGSKSGTSATLGITGLQTGDEADYYCGTWDELTSNLVFGGGTKLTVL", "3.12e-05"]
]}

Turning now to a further molecule:
Prompt line: I'd like to know its kd. The molecule in question is C0021158 IgG: anti-ARG2 antibody, VH SEQ ID NO: 282, VL SEQ ID NO: 287; IgG and Fab versions carry these sequences (antibody, listed as Homo sapiens, V domains shown, C0021158 IgG) VH: EVQLLESGGGLVQPGGSLRLSCAASGFTFRYEVAAWVRQAPGKGLEWVSAISGPIPKGYYADSVKGRFTISRDNSKNTLYLQMNSLRAEDTAVYYCARLRADLGLYMDLWGRGTLVTVSS VL: QSVLTQPPSVSAAPGQKVTISCSGSSSNIGNHYVSWYQQLPGTAPKLLIYDNSERTAGVPDRFSGSKSGTSATLGITGLQTGDEADYYCGTWDELTSNLVFGGGTKLTVL
Response line: 4.64e-05
